Test system: Hedgehog Signaling Pathway
assay-details: SHH-induced differentiation of C3H10T1/2 cells into osteoblastic cells, intracellular alkaline phosphatase activity
Format: cell-based, mouse
condition-parameters: Mus musculus, C3H 10T1/2, 120 h, 10 nM SHH-N, 5 days, alkaline phosphatase activity (OD405), read-out: IC50 values of compounds that inhibit Hh pathway
result-type: IC50 (nM)

Below, 2 compounds whose answers are already recorded.
chemical-string | IC50 [nM]
O=C1c2ccc(-c3ccccc3)cc2CCN1c1ccc(Cl)c(-c2nc3ccccc3[nH]2)c1 | 72
Cc1cc(-c2ccc(C(F)(F)F)cc2)ccc1C(=O)Nc1cccc(-c2nc3ccccc3[nH]2)c1 | 20

P. Cc1cc(N2C[C@@H](C)N(C)[C@@H](C)C2)ccc1C(=O)Nc1ccc(Cl)c(-c2nc(C)c(-c3cccs3)[nH]2)c1
Q. Cc1cc(N2C[C@@H](C)N(C)[C@@H](C)C2)ccc1C(=O)Nc1ccc(Cl)c(-c2ncc(-c3ccsc3)[nH]2)c1
Incoming: Could you point out whether the larger IC50 belongs to P or to Q ? Please reply using the label of the selected record.
Outgoing: P
